Item-by-item account of binding signal
Biological target: T1, TIA1 RRM2_3 (human, UniProt P31483-2 93-274)
T1 sequence: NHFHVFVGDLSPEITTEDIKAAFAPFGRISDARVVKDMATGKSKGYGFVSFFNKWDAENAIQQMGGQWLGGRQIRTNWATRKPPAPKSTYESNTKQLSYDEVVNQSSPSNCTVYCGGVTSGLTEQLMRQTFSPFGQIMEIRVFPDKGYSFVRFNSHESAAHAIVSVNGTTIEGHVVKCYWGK
Test: EMSA; EMSA: 10 mM sodium phosphate pH 6.5, 50 mM NaCl, 1 mM DTT, 1 U/ul SUPERase-In, room temperature 20 min, native 1.2% agarose; RNA annealed in 10 mM Tris-HCl pH 7.5, 100 mM KCl
Conditions: protein: recombinant; tags: His6-SUMO removed by SUMO protease; label: 5'-Cy3; hairpin
assay.metric: binding signal (kcal/mol ddG vs WT SL3)

{"binder": "UGUUCUCCAAACGAACUUUAA (structured_RNA) [SL3 U67C]", "scale.unit": "kcal/mol ddG vs WT SL3", "reported.result": 0.85}
{"binder": "UGUUCUCUAAACGAACGUUAA (structured_RNA) [SL3 U76G]", "scale.unit": "kcal/mol ddG vs WT SL3", "reported.result": 0.94}
{"binder": "UGUUCUCUGAACGAACUUUAA (structured_RNA) [SL3 A68G]", "scale.unit": "kcal/mol ddG vs WT SL3", "reported.result": 0.09}
{"binder": "UGUUCUCUAAACGAACAUUAA (structured_RNA) [SL3 U76A]", "scale.unit": "kcal/mol ddG vs WT SL3", "reported.result": 1.22}
{"binder": "UGUUCUCUAAACGAACUUAAA (structured_RNA) [SL3 U78A]", "scale.unit": "kcal/mol ddG vs WT SL3", "reported.result": 1.34}
{"binder": "UGUUCUCUAAACGAACUGUAA (structured_RNA) [SL3 U77G]", "scale.unit": "kcal/mol ddG vs WT SL3", "reported.result": 1.18}
{"binder": "UGUUCUCUAAACGAACUCUAA (structured_RNA) [SL3 U77C]", "scale.unit": "kcal/mol ddG vs WT SL3", "reported.result": 0.29}
{"binder": "UGUUCUCUAAACGAACUAUAA (structured_RNA) [SL3 U77A]", "scale.unit": "kcal/mol ddG vs WT SL3", "reported.result": 1.05}
{"binder": "UGUUCUCUCAACGAACUUUAA (structured_RNA) [SL3 A68C]", "scale.unit": "kcal/mol ddG vs WT SL3", "reported.result": -0.04}
